System: RXF 393 renal
Experiment: NCI-60 one-dose screen, 48 h (100 = growth as untreated, 0 = no growth, -100 = all killed)
Settings: 10 µM unless noted
About 83,000 compounds went through this panel and 20% of them were active in at least one assay; those are over-represented in the sample as a whole.
Experimental readout: growth (%)

>>> reading("O=C1Nc2ccccc2/C1=C/c1cccn1C(=O)c1ccc(Cl)s1")
81.1
>>> reading("COc1ccc(C(O)c2cc3c(N)c(C(=O)Nc4cccc(Cl)c4C)sc3nc2C)cc1 (stereo not given)")
33.7
>>> reading("COc1ccc2cc(-c3ccnc4c(N=Nc5ccc(Cl)cc5)c(N)nn34)ccc2c1")
115
>>> reading("CCc1n(Cc2ccc3ccccc3n2)cc[n+]1Cc1ccc2ccccc2n1")
46.6
>>> reading("COc1ccc2c(c1)CCc1[nH]nc(-c3cc(OC)c(OC)c(OC)c3)c1-2")
22.6
>>> reading("Cc1ccc2nc(/C(C#N)=C(/CCCO)NC(Cc3ccccc3)C(=O)OCc3ccccc3)[nH]c(=O)c2c1 (stereo not given)")
127
>>> reading("O=C1/C=C/[C@@H](O)[C@@H]2C[C@@H](O)C[C@H]2/C=C/CCC[C@H](CCO)O1")
-7.43
>>> reading("CN(C)c1ccc(-c2ccc3c(c2)c(-c2ccccc2)nc(=O)n3C)cn1")
61.3
>>> reading("C/C=C(/C)n1cnc2c(Nc3ccccn3)nc(Cl)nc21")
105
>>> reading("COc1ccc(/C=C2\\CN(C(=O)C(Cl)Cl)C/C(=C\\c3ccc(OC)cc3)C2=O)cc1")
-68.2

====

System: BT-549 breast
Assay: NCI-60 one-dose screen, 48 h
Conditions: 10 µM unless noted
This is part of a sample that, as a whole, favours compounds with a hit. Of some 83,000 tested, about 20% had one in any assay. Active and inactive are the calls of the source. How the source made its calls: active means growth percent below 10; inactive means the rest.
Classes used: active, inactive

>>> assigned_class("Cc1cn(-c2cc(NC(=O)c3cncc(C#Cc4c(N)ncc5ccc(F)cc45)c3)cc(C(F)(F)F)c2)cn1")
"inactive"
>>> assigned_class("NC(=O)c1cnc(Nc2cccc(N)c2)nc1NCCCNC(=O)C1CCC1")
"inactive"
>>> assigned_class("COc1ccccc1N(C(C)=O)C1=C(Cl)C(=O)c2ccccc2C1=O")
"active"
>>> assigned_class("CC(C)(C)n1cc(-c2ccnc(NCCCNS(=O)(=O)c3cccc4ccccc34)c2)c(-c2cccc(F)c2)n1")
"inactive"
>>> assigned_class("COc1ccc(-c2nn(-c3ccccc3)cc2/C=C/C(=O)NNC(=O)Nc2ccc(C)cc2)cc1")
"inactive"
>>> assigned_class("O=C(Cc1ccccc1)Nc1cccc(N=Cc2ccccc2O)c1")
"inactive"
>>> assigned_class("Cc1ccc2nc(-c3ccc(C(=O)NNC(=S)Nc4ccccc4)cc3)[nH]c2c1")
"inactive"
>>> assigned_class("Cc1ccc2nc(/C(C#N)=C(/CCCO)NC(Cc3ccccc3)C(=O)OCc3ccccc3)[nH]c(=O)c2c1 (centres undefined)")
"inactive"
>>> assigned_class("COC(=O)/C=C1/SC(=Nc2ccc([N+](=O)[O-])cc2)N(CCc2c[nH]c3ccc(O)cc23)C1=O")
"inactive"

====

Test system: HCT-15 colon
Assay: NCI-60 one-dose screen, 48 h (100 = growth as untreated, 0 = no growth, -100 = all killed)
Details: 10 µM unless noted
This is part of a sample that, as a whole, favours compounds with a hit. Of some 83,000 tested, about 20% had one in any assay.
Some compounds, each annotated with its measured growth.
Experimental readout: growth (%)

>>> reading("COc1ccc(C2=CC(c3cc(OC)c(OC)c(OC)c3)n3ncnc3N2)cc1 (configuration not stated)")
14.5
>>> reading("O=C(Nc1ccccc1O)c1ccc(CNC(=O)c2ccsc2Nc2ccnc(C(F)(F)F)c2)cc1")
28
>>> reading("CCCCNC(=O)c1cc([N+](=O)[O-])cc(C2CCCCC2)c1O")
42.7
>>> reading("C=C(C)[C@@H]1CC[C@]2(C(=O)N3CCN(C)CC3)CC[C@]3(C)[C@H](CC[C@@H]4[C@@]5(C)CC[C@H](OC(=O)c6ccccc6C(=O)O)C(C)(C)[C@@H]5CC[C@]43C)[C@@H]12")
103
>>> reading("CCCCCCCCCCCCCOC(=O)c1c(C)[nH]c(/C=C2\\N=C(c3ccc[nH]3)C=C2OC)c1C")
4.86
>>> reading("CCCCNc1cc(-c2cn[nH]c2-c2cc(C)cc(OC)c2)nc(-c2cccnc2)n1")
82.7
>>> reading("CNC(=O)c1cc(Oc2cccc3nc(NC(=O)Nc4cc(C(F)(F)F)ccc4Cl)ccc23)ccn1")
90
>>> reading("CN1CCN(CCOc2ccc(-c3cnc4c(-c5ccc(F)cc5)cnn4c3)cc2)CC1")
-15.8
>>> reading("C=C(CNCCO)[C@@H]1CC[C@]2(CO)CC[C@]3(C)[C@H](CC[C@@H]4[C@@]5(C)CCC(N)C(C)(C)[C@@H]5CC[C@]43C)[C@@H]12 (some centres not stated)")
77
>>> reading("CC1(C)CC[C@]2(C(=O)N[C@H](CO)Cc3ccccc3)CC[C@]3(C)C(=CC[C@@H]4[C@@]5(C)CCCNC(C)(C)[C@@H]5CC[C@]43C)[C@@H]2C1")
60.5
>>> reading("N#Cc1cccc(C2C3=C(COC3=O)N(CCO)c3cc4c(cc32)OCO4)c1 (configuration not stated)")
26.1
>>> reading("CCc1ccc(CCC(=O)Nc2ncc(Cc3ccccc3)s2)o1")
20.2
>>> reading("CCN1C(=O)N(CC)C2C1NN=c1s/c(=C\\c3cnc(C)n3C)c(=O)n12 (configuration not stated)")
27.7
>>> reading("S=C(c1ccc2c(c1)OCO2)N1CCN(c2cccc(Cl)c2)CC1")
24.1
>>> reading("Cc1ccc(Cl)cc1NC(=O)c1sc2nc3c(cc2c1N)C(=O)CCC3")
45.9
>>> reading("O=C(NNC(=O)c1ccc(NC(=O)c2ccccn2)cc1)Nc1ccc2ccccc2c1")
105
>>> reading("COc1cc(/C=C2\\CN(S(=O)(=O)c3ccccc3)C/C(=C\\c3cc(CN4CCCCC4)c(O)c(OC)c3)C2=O)cc(CN2CCCCC2)c1O")
-73.8

====

Tested on: SK-OV-3 ovarian
Assay: NCI-60 one-dose screen, 48 h
Settings: 10 µM unless noted
This is part of a sample that, as a whole, favours compounds with a hit. Of some 83,000 tested, about 20% had one in any assay. Activity calls are given as the source filed them. Rule for the calls: active = growth percent below 10; inactive = the rest.
Classes used: active, inactive

>>> assigned_class("N#CSc1c[nH]c2cccc(/C=C/C(=O)/C=C(O)/C=C/c3cccc4[nH]cc(SC#N)c34)c12")
"active"
>>> assigned_class("COc1cccc(/C=N/NC(=O)c2ccccc2N2CCCC2)c1O")
"inactive"
>>> assigned_class("CCNC(=O)Oc1ccc(/C(=C(/C)Cc2ccc(OC)cc2)c2ccc(OCCN3CCCCC3)cc2)cc1")
"inactive"
>>> assigned_class("NS(=O)(=O)c1ccc(C(=O)NN2C(=O)c3c(Br)c(Br)c(Br)c(Br)c3C2=O)cc1")
"inactive"
>>> assigned_class("CC[C@]12C=CCN3CC[C@@]4(c5ccc(OC)cc5N(C)[C@H]4[C@@](O)(C(=O)OC)[C@@H]1OC(=O)CCC[P+](c1ccccc1)(c1ccccc1)c1ccccc1)[C@@H]32")
"active"
>>> assigned_class("C=CCC(CCCC)(C(=O)OCC)C(=O)OCC")
"inactive"
>>> assigned_class("Ic1ccccc1I")
"inactive"
>>> assigned_class("Cc1[nH]c(C2CC(c3ccc(C(F)(F)F)c(F)c3)=NN2c2ccccc2)c(C)c1C(=O)NCC(F)(F)F (stereo not given)")
"inactive"
>>> assigned_class("N#C/C(=C\\c1ccc([N+](=O)[O-])cc1)n1nnc2cc(F)c(F)cc21")
"inactive"
>>> assigned_class("Cc1c2ccncc2c(C)c2c1c1cc(CO)ccc1n2C")
"active"
>>> assigned_class("CC/C(Cc1ccccc1)=C(\\c1ccc(OCCCN(C)C)cc1)c1ccc(OC(=O)NCc2ccccc2)cc1")
"inactive"
>>> assigned_class("Cc1cccc(-c2nc(Nc3ccc4ncsc4c3)c3ccccc3n2)n1")
"inactive"
>>> assigned_class("Nc1ccc(-c2csc(-n3[nH]c(=O)ccc3=O)n2)cc1")
"inactive"
>>> assigned_class("CN(C)CCCNC(=O)c1cncnc1Nc1ccc(OCc2cccc(F)c2)c(Cl)c1")
"active"
>>> assigned_class("CCc1ccc(CCC(=O)Nc2ncc(Cc3cc(Cl)ccc3Cl)s2)o1")
"inactive"
>>> assigned_class("COc1cc(/C=N/Nc2ccc(Br)cc2)cc(OC)c1OC")
"inactive"
>>> assigned_class("CCO/C=N/C1=C(C#N)C(c2ccc(F)cc2)c2sc3c(F)cccc3c2O1 (stereo not given)")
"inactive"
>>> assigned_class("CN(C)c1ccc(/C=C(\\C#N)c2cc3ccccc3[nH]2)cc1")
"inactive"
>>> assigned_class("COC(=O)c1nc(-c2ccccc2)oc1S(=O)(=O)NCC(c1ccc(Cl)cc1)N1CCOCC1 (stereo not given)")
"inactive"
>>> assigned_class("O=C(NNC(=O)c1nc2cc(F)ccc2n2cccc12)c1cnccn1")
"inactive"
